Let's go through some pIC50 measurements on UniProt:P00533 together.
pIC50: −log10 of the molar value.

O=C(c1c[nH]c2ccccc12)N1CCC(Cc2ccccc2)CC1; < 3.30

Would you kindly look at the next entry?
Entry O=C(c1cccc2[nH]ccc12)N1CCC(Cc2ccccc2)CC1 ; pIC50 = < 3.30

---

target: CDK2 (human) (UniProt P24941); assay: Cell-Based Assay; conditions: du-145
property-name: IC50 (µM)
Answers are plain numbers, in µM.

Entry C[C@@H](Nc1nc(N[C@H]2CC[C@H](N)CC2)nc2c1ncn2C1CCCC1)c1ccccc1 under CDK2 (human) (UniProt P24941) had IC50 of 5.6

---

target: ROCK2 (human) (UniProt O75116)
Sequence (O75116 whole entry, looked up): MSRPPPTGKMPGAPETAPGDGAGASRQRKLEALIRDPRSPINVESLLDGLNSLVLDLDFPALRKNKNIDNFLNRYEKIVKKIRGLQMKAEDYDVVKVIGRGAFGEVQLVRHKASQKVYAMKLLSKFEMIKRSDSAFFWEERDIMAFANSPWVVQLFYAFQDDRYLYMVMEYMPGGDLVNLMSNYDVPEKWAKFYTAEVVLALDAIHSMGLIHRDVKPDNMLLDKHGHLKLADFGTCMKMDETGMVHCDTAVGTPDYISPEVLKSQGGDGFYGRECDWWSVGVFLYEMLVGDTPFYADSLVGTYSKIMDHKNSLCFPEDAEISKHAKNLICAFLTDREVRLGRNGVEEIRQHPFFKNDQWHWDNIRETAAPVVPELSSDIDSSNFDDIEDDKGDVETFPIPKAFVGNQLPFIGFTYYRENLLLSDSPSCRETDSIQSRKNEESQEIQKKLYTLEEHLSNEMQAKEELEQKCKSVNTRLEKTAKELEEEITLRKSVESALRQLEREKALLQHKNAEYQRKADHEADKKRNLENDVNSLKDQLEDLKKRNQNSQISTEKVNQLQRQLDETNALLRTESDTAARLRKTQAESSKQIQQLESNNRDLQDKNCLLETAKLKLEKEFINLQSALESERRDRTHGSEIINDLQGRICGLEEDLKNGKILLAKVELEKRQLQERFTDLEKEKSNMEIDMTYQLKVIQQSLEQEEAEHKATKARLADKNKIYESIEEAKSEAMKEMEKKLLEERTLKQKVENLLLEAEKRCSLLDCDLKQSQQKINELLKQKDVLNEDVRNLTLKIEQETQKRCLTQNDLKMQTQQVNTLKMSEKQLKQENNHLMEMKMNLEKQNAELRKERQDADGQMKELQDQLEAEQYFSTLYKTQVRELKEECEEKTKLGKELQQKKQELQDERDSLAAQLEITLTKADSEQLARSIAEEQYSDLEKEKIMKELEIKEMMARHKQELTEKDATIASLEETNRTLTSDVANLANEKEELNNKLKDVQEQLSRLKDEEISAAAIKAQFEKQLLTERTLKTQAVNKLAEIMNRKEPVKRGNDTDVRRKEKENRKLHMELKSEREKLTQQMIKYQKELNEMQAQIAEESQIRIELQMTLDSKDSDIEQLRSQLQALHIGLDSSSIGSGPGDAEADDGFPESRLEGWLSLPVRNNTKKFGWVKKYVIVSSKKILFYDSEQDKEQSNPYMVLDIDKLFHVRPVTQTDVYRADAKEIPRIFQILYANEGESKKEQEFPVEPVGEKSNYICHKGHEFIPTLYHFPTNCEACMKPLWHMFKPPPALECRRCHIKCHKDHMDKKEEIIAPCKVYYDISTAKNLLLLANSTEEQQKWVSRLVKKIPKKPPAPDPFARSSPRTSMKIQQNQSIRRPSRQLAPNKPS
Consider the following compounds; for each one, report its pIC50.
Numbers only, as −log10 of the molar value.

COc1cccc2c1CNC(C(=O)Nc1ccc(-c3cn[nH]c3)cc1OCCN(C)C)C2 (stereo unspecified); 6.48
COc1ccc2c(c1)CN[C@@H](C(=O)Nc1ccc(-c3cn[nH]c3)cc1OCCN(C)C)C2; 6.58
NC(Cc1cccc(Cl)c1)C(=O)Nc1ccc(-c2cn[nH]c2)cc1 (stereo unspecified); 8.70
COc1ccc2c(c1)C[C@H](C(=O)Nc1ccc(-c3cn[nH]c3)cc1)NC2; 6.87
CCOc1ccc2c(c1)CC(C(=O)Nc1ccc(-c3cn[nH]c3)cc1OCCN(C)C)NC2 (stereo unspecified); 6.07

Would you kindly look at the next entry?
Entry CCN1Cc2ccc(OC)cc2C[C@@H]1C(=O)Nc1ccc(-c2cn[nH]c2)cc1OCCN(C)C ; pIC50 = 8.05

---

molecular target: UniProtKB Q16539; test: CSBP binding - Inhibition of Prostaglandin H Synthase Type-1 Enzyme Assay
Consider the following compounds; for each one, report its IC50.

Fc1ccc(-c2nc[nH]c2-c2ccncc2)cc1; > 100 µM

Would you kindly look at the next entry?
Entry Clc1ccc(-c2ncn(CCCN3CCOCC3)c2-c2ccncc2)cc1Cl ; IC50 = > 100 µM

---

target: PIK3CG (human) (UniProt P48736); assay: Inhibition of PIK3CG Kinase Activity by SPA Assay
Sequence (P48736 whole entry, looked up): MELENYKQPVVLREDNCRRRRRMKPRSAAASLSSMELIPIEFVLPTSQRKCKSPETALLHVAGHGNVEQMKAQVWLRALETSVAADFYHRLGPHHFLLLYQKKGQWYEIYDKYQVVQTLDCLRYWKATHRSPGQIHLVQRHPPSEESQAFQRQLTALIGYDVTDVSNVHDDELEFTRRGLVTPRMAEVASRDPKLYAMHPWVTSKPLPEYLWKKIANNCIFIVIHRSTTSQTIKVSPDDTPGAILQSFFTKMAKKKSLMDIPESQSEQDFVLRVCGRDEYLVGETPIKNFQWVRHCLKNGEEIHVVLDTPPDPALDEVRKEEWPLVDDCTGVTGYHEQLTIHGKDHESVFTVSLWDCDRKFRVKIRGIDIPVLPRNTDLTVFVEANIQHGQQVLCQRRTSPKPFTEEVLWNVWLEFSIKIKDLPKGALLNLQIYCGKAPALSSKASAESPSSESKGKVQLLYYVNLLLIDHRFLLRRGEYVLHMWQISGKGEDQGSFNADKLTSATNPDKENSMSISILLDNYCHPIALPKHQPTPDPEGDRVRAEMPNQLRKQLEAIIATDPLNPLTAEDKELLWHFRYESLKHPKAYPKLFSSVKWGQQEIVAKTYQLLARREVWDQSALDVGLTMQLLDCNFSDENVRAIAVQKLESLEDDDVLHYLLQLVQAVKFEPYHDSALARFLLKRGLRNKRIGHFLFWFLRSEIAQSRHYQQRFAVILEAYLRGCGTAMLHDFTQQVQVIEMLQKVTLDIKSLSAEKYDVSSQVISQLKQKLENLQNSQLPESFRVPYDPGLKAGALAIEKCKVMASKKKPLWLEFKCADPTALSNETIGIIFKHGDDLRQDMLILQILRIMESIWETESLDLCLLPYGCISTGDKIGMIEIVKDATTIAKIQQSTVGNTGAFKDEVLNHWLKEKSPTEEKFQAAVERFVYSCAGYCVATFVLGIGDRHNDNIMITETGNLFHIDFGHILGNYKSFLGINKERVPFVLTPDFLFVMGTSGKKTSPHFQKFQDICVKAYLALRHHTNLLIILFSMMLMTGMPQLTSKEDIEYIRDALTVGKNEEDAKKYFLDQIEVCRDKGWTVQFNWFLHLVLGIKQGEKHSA
property-name: IC50

Entry COc1ccccc1Cn1cnc2ccc(/C=C3\SC(=O)NC3=O)cc21 under PIK3CG (human) (UniProt P48736) had IC50 of < 1000 nM

---

biological target: MAPK14 (UniProt Q16539); assay: p38-alpha 2 Inhibition
property-name: pIC50
One number for each entry, as −log10 of the molar value.

Entry NC(=O)c1ccccc1NC(=O)Nc1ccc(Cl)c(Cl)c1 ; pIC50 = 7.00

---

target: PIK3CG (human) (UniProt P48736); test: Enzyme Assay
property-name: pKi
Give bare numbers, as −log10 of the molar value.

Entry COc1ncc(-c2ccc3nccc(-c4ccnnc4)c3c2)cc1NS(=O)(=O)c1ccc(F)cc1F ; pKi = 10.22

---

Consider the following molecules; for each one, report its Ki.
target: PIK3CG (human) (UniProt P48736); test: Assessment of PIK3CG Kinase Activity
Give bare numbers, in nM.

COc1ccc(C2=NNC(=O)C2=NNc2cccnc2)cc1; 1000

Entry COc1ccc(C2=NNC(=O)C2=NNc2ccccc2)cn1 ; Ki = 540

---

Consider the following compounds; for each one, report its pKi.
target: UniProt P00533; details: a431
One number for each entry, as −log10 of the molar value.

Oc1ccc2ncnc(Nc3cccc(Br)c3)c2c1; 10.60

Would you kindly look at the next entry?
Entry Oc1ccc2c(Nc3cccc(Br)c3)ncnc2c1 ; pKi = 9.77

---

target: EGFR (UniProt P00533)
Sequence (P00533 whole entry, looked up): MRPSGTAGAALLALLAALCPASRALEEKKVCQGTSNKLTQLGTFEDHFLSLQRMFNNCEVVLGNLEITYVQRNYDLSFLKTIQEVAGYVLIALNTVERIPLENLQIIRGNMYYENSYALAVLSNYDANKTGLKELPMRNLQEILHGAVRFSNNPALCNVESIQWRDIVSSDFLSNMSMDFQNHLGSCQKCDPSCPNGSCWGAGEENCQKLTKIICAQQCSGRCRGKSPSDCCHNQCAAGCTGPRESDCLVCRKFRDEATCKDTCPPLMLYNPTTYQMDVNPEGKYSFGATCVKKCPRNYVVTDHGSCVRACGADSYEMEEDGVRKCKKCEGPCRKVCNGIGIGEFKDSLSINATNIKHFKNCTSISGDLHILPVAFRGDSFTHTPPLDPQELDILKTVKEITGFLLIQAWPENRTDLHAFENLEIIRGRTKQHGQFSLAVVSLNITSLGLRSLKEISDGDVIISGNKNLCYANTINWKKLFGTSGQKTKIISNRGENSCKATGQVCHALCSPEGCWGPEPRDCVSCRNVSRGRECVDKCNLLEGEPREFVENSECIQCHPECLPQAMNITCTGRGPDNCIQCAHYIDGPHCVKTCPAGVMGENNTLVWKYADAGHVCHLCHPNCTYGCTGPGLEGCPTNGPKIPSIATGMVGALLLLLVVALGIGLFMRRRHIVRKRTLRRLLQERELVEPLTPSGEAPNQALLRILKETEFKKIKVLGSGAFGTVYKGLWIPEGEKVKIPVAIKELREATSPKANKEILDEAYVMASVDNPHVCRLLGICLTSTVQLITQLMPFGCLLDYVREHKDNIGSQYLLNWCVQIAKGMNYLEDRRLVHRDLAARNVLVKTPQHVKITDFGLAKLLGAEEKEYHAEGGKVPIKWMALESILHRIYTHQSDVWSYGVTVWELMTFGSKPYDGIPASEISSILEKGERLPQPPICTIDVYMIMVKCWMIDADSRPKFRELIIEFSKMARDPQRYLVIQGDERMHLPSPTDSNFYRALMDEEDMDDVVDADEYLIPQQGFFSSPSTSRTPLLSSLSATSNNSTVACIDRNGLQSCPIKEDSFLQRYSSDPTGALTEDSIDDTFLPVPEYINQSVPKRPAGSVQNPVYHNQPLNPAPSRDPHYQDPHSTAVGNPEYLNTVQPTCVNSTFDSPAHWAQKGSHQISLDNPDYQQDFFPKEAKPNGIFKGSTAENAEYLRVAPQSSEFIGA
pIC50: −log10 of the molar value.
property-name: pIC50

Entry O=C(O)CCC1C(=S)Nc2ccccc21 (stereo unspecified) under EGFR (UniProt P00533) had pIC50 of < 5.79

---

target: MAPK14 (human); test: Enzyme Assay
property-name: pIC50
Give bare numbers, as −log10 of the molar value.

Use the examples below as a reference point.
Cc1cccc(COc2nc(C)n(-c3cc(-c4ccnc(C(C)(C)O)n4)ccc3C)c(=O)c2Cl)n1; 6.74
Cc1ccc(C(=O)NC2CC2)cc1-c1ccc2c(c1)NC(=O)C21CCN(C)CC1; 8.28
O=c1c(Br)c(OCc2ccc(F)cc2F)ccn1Cc1cccc(F)c1; 6.21
COc1ccc(C=CC(=O)Nc2cc(-c3c(-c4ccc(F)cc4)noc3C(C)C)ccn2)c(OC)c1; 5.60

Would you kindly look at the next entry?
Entry O=C(NCCCN1CCOCC1)c1ccc(-n2ncc3cc(Nc4ccccc4Cl)ccc32)cc1 ; pIC50 = 6.77

---

biological target: PIK3CG (human); experiment: Inhibition of PIK3CG Kinase Activity
property-name: IC50 (nM)
One number for each entry, in nM.

O=C1NC(=O)/C(=C/c2ccc3ncn(-c4ccc5c(c4)CCN5S(=O)(=O)CCCN4CCOCC4)c3n2)S1; 20

# per-item lookup of IC50; items listed below
1. CCN(CC)C(C)=C1C(=O)O[C@H](COC)[C@@]2(C)C1=C(O)C(=O)C1=C2[C@H](OC(C)=O)C[C@]2(C)C(=O)CC[C@@H]12
2. COc1cc2sc(C(=O)Nc3nnn[nH]3)c(OC3C[C@@H](C)C[C@@H](C)C3)c2cc1OC (some centres undefined)

Output:
[80, 32]

---

biological target: UniProtKB P00533; conditions: a431
Consider the following molecules; for each one, report its IC50.
Give bare numbers, in nM.

Brc1cccc(Nc2ncnc3cc4c(ccn4CCCN4CCOCC4)cc23)c1; 77

Entry Brc1cccc(Nc2ncnc3cc4[nH]cc(CNN5CCOCC5)c4cc23)c1 ; IC50 = 9.6

---

biological target: EGFR (human) (UniProt P00533); settings: a431
Sequence (P00533 whole entry, looked up): as the sequence (P00533 whole entry, looked up) above
property-name: IC50 (µM)
Numbers only, in µM.

Use the examples below as a reference point.
CC(C)(C)c1cc(C=C(C#N)C#N)cc(C(C)(C)C)c1O; 0.1
CCOC(=O)C(C#N)=Cc1cc(C(C)(C)C)cc(C(C)(C)C)c1; 20

Would you kindly look at the next entry?
Entry CC(C)(C)c1cc(C=C(C#N)C(N)=S)cc(C(C)(C)C)c1 ; IC50 = 20

---

biological target: EGFR (UniProt P00533)
property-name: IC50 (nM)
Give bare numbers, in nM.

Entry O=C(O)c1cc(/C=C/c2cc(O)ccc2O)ccc1O ; IC50 = 2000

---

Consider the following molecules; for each one, report its IC50.
target: EGFR (human) (UniProt P00533); conditions: a431
Numbers only, in µM.

# per-item lookup of IC50; items listed below
1. CNC(=O)c1ccc(S(=O)(=O)Oc2ccc(/C=C/[N+](=O)[O-])cc2)cc1
2. C[C@H](NC(=O)c1ccc(S(=O)(=O)Oc2ccc(/C=C/[N+](=O)[O-])cc2)cc1)C(=O)N[C@@H](C)C(=O)OC(C)(C)C

Output:
[37.5, 37.5]

---

Consider the following molecules; for each one, report its IC50.
biological target: PIK3CB;PIK3CG;PIK3CD;PIK3CA (human); test: Antiproliferation of Anti-IgM stimulated Human B Cells by PI3K Inhibitors
Answers are plain numbers, in nM.

# per-item lookup of IC50; items listed below
1. C[C@H](Nc1ncnc2[nH]cnc12)C1=C(c2ccccc2)[NH+]([O-])c2cc(F)ccc2C1 (stereo partly drawn)
2. Cc1cccnc1-c1nc2c(Cl)cccc2cc1CNc1ncnc2[nH]cnc12
3. Fc1ccc(OCCc2ccccc2)c(-c2nc3c(Cl)cccc3cc2CNc2ncnc3[nH]cnc23)c1

Output:
1: 4.64; 2: 79; 3: 565

---

Consider the following compounds; for each one, report its activity.
biological target: ROCK2 (human) (UniProt O75116); experiment: Enzyme Assay; conditions: concentration not given here
Your answer should be a number followed by the unit of measure.

Use the examples below as a reference point.
CO[C@H]1C[C@@H]2CC[C@@H](C)[C@@](O)(O2)C(=O)C(=O)N2CCCC[C@H]2C(=O)O[C@H]([C@H](C)C[C@@H]2CC[C@@H](O)[C@H](OC)C2)CC(=O)[C@H](C)C=C(C)[C@@H](O)[C@@H](OC)C(=O)[C@H](C)C[C@H](C)C=CC=CC=C1C; 106%
CN[C@@H]1C[C@H]2O[C@@](C)([C@@H]1OC)n1c3ccccc3c3c4c(c5c6ccccc6n2c5c31)C(=O)N[C@@H]4O; 22%
O=S(=O)(NCCNC/C=C/c1ccc(Br)cc1)c1cccc2cnccc12; 0%

Would you kindly look at the next entry?
Entry O=C1NC(=O)C(c2c[nH]c3ccccc23)=C1c1c[nH]c2ccccc12 ; activity = 100%

---

molecular target: UniProt:Q16539; assay: MAPK Inhibition
property-name: IC50
Your answer should be a number followed by the unit of measure.

Entry COc1cccc(-c2cc(=O)c3ccccc3o2)c1N ; IC50 = 2000 nM
